Data credit: patent US8796297B2

Reported pEC50 values for a set of compounds
# target: human H3R (Homo sapiens (Human))
# Sequence (Q9Y5N1 whole entry): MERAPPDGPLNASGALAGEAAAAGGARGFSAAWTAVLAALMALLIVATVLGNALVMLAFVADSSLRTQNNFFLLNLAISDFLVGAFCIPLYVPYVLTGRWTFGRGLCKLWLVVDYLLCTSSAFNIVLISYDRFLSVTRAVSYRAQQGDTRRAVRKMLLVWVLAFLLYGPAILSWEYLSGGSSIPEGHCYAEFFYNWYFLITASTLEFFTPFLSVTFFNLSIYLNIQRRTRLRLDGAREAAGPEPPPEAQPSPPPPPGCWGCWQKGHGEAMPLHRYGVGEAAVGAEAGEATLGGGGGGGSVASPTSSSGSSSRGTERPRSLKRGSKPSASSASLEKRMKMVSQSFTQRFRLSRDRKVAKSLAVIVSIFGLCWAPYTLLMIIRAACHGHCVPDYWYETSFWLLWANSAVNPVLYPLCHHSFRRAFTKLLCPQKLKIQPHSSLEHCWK
# protocol-notes: GTPγS functional assay, membranes from HEK cells expressing the human H3R
# condition: GTPγS agonist potency
pEC50: −log10 of the molar value. Structures can show the parent of a compound that is named as a salt.
measurement-label: pEC50

• Nc1nccc(N2CCNCC2)n1 [Example 25, dihydrochloride] = 6.88
• Cl.Cl.Nc1nccc(N2CCC(N)CC2)n1 [Example 20, dihydrochloride] = 5.98
• CN1CCN(c2ccnc(N)n2)CC1 = 6.89
• CC(C)(CN)CNc1ccnc(N)n1 = 5.24
• Nc1nccc(NC2CCN(Cc3ccccc3)CC2)n1 [Example 12, 2,2,2-trifluoroacetate] = 6.06
